Test: method code SF-AS, from DOI: 10.1016/0378-5173(79)90126-1
Details: pH 3.5
propertyName: logD

Some solved entries appear below for comparison.
>>> datavalue("CNC(=O)NC(=O)C(C)(C(=O)OC)C1C=CCCC1 (centres undefined)")
1.75
>>> datavalue("C=CCC(CC=C)(C(=O)NC(N)=O)C(=O)OC")
1.37

I: CCC(CC)(C(=O)NC(N)=O)C(=O)OCC(=O)OC
II: CCC(CC)(C(=O)NC(N)=O)C(=O)OC(C)C
Query: Which is greater in logD, the first item I or the second item II ? Respond using the label that marks the chosen record.
Reply: II

====

Assay: method code SF-AS, from DOI: 10.1016/0378-5173(79)90126-1
Settings: pH 3.5
propertyName: logD

Some solved entries appear below for comparison.
>>> datavalue("CCC(CC)(C(=O)NC(N)=O)C(=O)OCc1ccccc1")
2.74
>>> datavalue("CCC(C(=O)NC(N)=O)(C(=O)OC)c1ccccc1 (stereo unspecified)")
1.58
>>> datavalue("CCNC(=O)NC(=O)C(C)(C(=O)OC)C1=CCCCC1 (stereo unspecified)")
2.25
>>> datavalue("CNC(=O)NC(=O)C(C)(C(=O)OCOC)C1=CCCCC1 (stereo unspecified)")
1.8

P: CCC(CC)(C(=O)NC(N)=O)C(=O)OC
Q: CCOC(=O)C(CC)(CC)C(=O)NC(N)=O
Query: Which is greater in logD, the first item P or the second item Q ? Respond using the label that marks the chosen record.
Reply: Q
(Q: 1.45, P: 0.95)

Reference source for all entries: the SangsterLogP compilation
